Values compiled from the supplement of paper PMC10567573.

B1: ZNF207 (parent)
chain: FQPQPVQPQQGYIPPMAQPGLPPV

Variants of: B1
Experiment: protein stability index of a GFP-peptide fusion (GPS, HEK-293T) (PSI 1-6); higher = more stable;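 also: lentivirally expressed fusions sorted by FACS into six bins by GFP to DsRed ratio, PSI derived from sequencing read proportions per bin multiplied by bin number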
Conditions: c terminus: a fixed tail appended
Readings of protein stability index for the listed variants
Parameter measured: protein stability index

monomer_sequence="FQPQPVQPQQGRIPPMAQPGLPPV [Y12R]" parameter_measured="protein stability index" measured_value=3.66
monomer_sequence="FQPQPVQPQQGYIPPMNQPGLPPV [A17N]" parameter_measured="protein stability index" measured_value=3.59
monomer_sequence="FQPQPVQPQQGYIPPMAQPGLHPV [P22H]" parameter_measured="protein stability index" measured_value=2.83
monomer_sequence="FQPQPVQRQQGYIPPMAQPGLPPV [P8R]" parameter_measured="protein stability index" measured_value=2.61
monomer_sequence="FQPQPVQPQQGYIPWMAQPGLPPV [P15W]" parameter_measured="protein stability index" measured_value=1.73
monomer_sequence="FQPQPVQPQQGYIKPMAQPGLPPV [P14K]" parameter_measured="protein stability index" measured_value=2.83
monomer_sequence="FQPQGVQPQQGYIPPMAQPGLPPV [P5G]" parameter_measured="protein stability index" measured_value=3.45
monomer_sequence="FQPQPVQPQQGYIPPIAQPGLPPV [M16I]" parameter_measured="protein stability index" measured_value=3.3
monomer_sequence="FQPQPVQPQQGYSPPMAQPGLPPV [I13S]" parameter_measured="protein stability index" measured_value=3.58
monomer_sequence="FQEQPVQPQQGYIPPMAQPGLPPV [P3E]" parameter_measured="protein stability index" measured_value=3.94
monomer_sequence="FQPQPVQPQQGYIPPMAQPGLPRV [P23R]" parameter_measured="protein stability index" measured_value=3.02
monomer_sequence="FQPQPVQPQQGYIPPCAQPGLPPV [M16C]" parameter_measured="protein stability index" measured_value=3.08
monomer_sequence="FQDQPVQPQQGYIPPMAQPGLPPV [P3D]" parameter_measured="protein stability index" measured_value=3.62
monomer_sequence="FQPQPVQPQQGYIPPMGQPGLPPV [A17G]" parameter_measured="protein stability index" measured_value=2.98
monomer_sequence="FQPQIVQPQQGYIPPMAQPGLPPV [P5I]" parameter_measured="protein stability index" measured_value=2.63
monomer_sequence="FQPQPVYPQQGYIPPMAQPGLPPV [Q7Y]" parameter_measured="protein stability index" measured_value=2.5
monomer_sequence="FQGQPVQPQQGYIPPMAQPGLPPV [P3G]" parameter_measured="protein stability index" measured_value=3.8
monomer_sequence="FQPQPVQPQQGYIPPMAQPGLNPV [P22N]" parameter_measured="protein stability index" measured_value=2.74
monomer_sequence="CQPQPVQPQQGYIPPMAQPGLPPV [F1C]" parameter_measured="protein stability index" measured_value=3.07
monomer_sequence="FQPQPVQPWQGYIPPMAQPGLPPV [Q9W]" parameter_measured="protein stability index" measured_value=1.88
monomer_sequence="FFPQPVQPQQGYIPPMAQPGLPPV [Q2F]" parameter_measured="protein stability index" measured_value=3.18
monomer_sequence="FQPQPVQPQQGYIPPMAQPGLPEV [P23E]" parameter_measured="protein stability index" measured_value=3.07
monomer_sequence="FQPQPVQPQQGYIPPMAQPGLPGV [P23G]" parameter_measured="protein stability index" measured_value=2.27
monomer_sequence="FQPGPVQPQQGYIPPMAQPGLPPV [Q4G]" parameter_measured="protein stability index" measured_value=2.71
monomer_sequence="FQPQHVQPQQGYIPPMAQPGLPPV [P5H]" parameter_measured="protein stability index" measured_value=3.15
monomer_sequence="FQPQPVQPQQGFIPPMAQPGLPPV [Y12F]" parameter_measured="protein stability index" measured_value=2.81
monomer_sequence="FQPQPVQPQQHYIPPMAQPGLPPV [G11H]" parameter_measured="protein stability index" measured_value=3.21
monomer_sequence="FQPQPVQPQLGYIPPMAQPGLPPV [Q10L]" parameter_measured="protein stability index" measured_value=2.16
monomer_sequence="FQPQRVQPQQGYIPPMAQPGLPPV [P5R]" parameter_measured="protein stability index" measured_value=2.58
monomer_sequence="FQPQPVQPQQGYIPPMAQFGLPPV [P19F]" parameter_measured="protein stability index" measured_value=2.38
monomer_sequence="FQPQPVQPQWGYIPPMAQPGLPPV [Q10W]" parameter_measured="protein stability index" measured_value=1.95
monomer_sequence="FQPQPVQPQQGYIPPMSQPGLPPV [A17S]" parameter_measured="protein stability index" measured_value=3.86
monomer_sequence="FQPQPVQPQQGYIPPMAQPGLPPY [V24Y]" parameter_measured="protein stability index" measured_value=2.4
monomer_sequence="FQPQPVQPQQGYIPPMAQHGLPPV [P19H]" parameter_measured="protein stability index" measured_value=3.19
monomer_sequence="FQPQPVQPQKGYIPPMAQPGLPPV [Q10K]" parameter_measured="protein stability index" measured_value=2.98
monomer_sequence="FQPQPVQPQQGYIPPMAQPGKPPV [L21K]" parameter_measured="protein stability index" measured_value=3.48
monomer_sequence="FQPQPEQPQQGYIPPMAQPGLPPV [V6E]" parameter_measured="protein stability index" measured_value=3.61
monomer_sequence="FQPQPVQPQQPYIPPMAQPGLPPV [G11P]" parameter_measured="protein stability index" measured_value=2.74
monomer_sequence="FGPQPVQPQQGYIPPMAQPGLPPV [Q2G]" parameter_measured="protein stability index" measured_value=3.61
monomer_sequence="FQPQPVQPQQGYNPPMAQPGLPPV [I13N]" parameter_measured="protein stability index" measured_value=3.17
